The values you see were collected from the supplement of paper PMC4723716.

# Tested on: Plasmodium falciparum NF54 gametocytes
# experiment.summary: viability index relative to DMSO control (fraction); higher = less gametocyte killing
# condition.label: gametocyte stage: Stage III viability index; 12.5 µM; incubation time: 72 h
Rule: viability index below 0.7 gives met, anything at or above gives not met.

| molecule | label |
| --- | --- |
| CC1=C(CC(=O)c2cccc([N+](=O)[O-])c2)C(=O)c2ccccc2C1=O | met |
| Cc1ccc(-c2cc3c(nn2)-c2ccccc2C3=O)cc1 | not met |
| CCOc1cc2c(cc1OCC)C(c1cc(C)c(O)c(C)c1)NCC2 (centres undefined) | met |
| COc1ccc(CCNC(=O)c2cc(S(=O)(=O)N3CC(C)CC(C)C3)ccc2Sc2ccc(F)cc2)cc1OC (centres undefined) | not met |
| CCCOCc1cc(CN2CCN(c3cccc(Cl)c3)CC2)c(O)c2ncccc12 | met |
| Cc1cc(C)cc(Nc2cc(C)nc3nc(C(F)(F)F)nn23)c1 | not met |
| COc1cc(-c2nc(-c3ccc(Sc4ccccc4)cc3)c(-c3ccccc3)[nH]2)cc(OC)c1O | met |
| COc1ccc2nc(C)cc(Nc3ccc(Cl)cc3)c2c1 | not met |
| Cc1c(C)n(Cc2ccc(F)cc2)c2ccc(C(=O)NCc3ccco3)cc12 | not met |
| O=C(Nc1ccc(CN2CCOCC2)cc1)c1ccc(-c2ccc(Br)cc2)o1 | not met |
| CCc1c(C)c(=N)c2ccccc2n1C | not met |
| CCCCC(O)(c1ccc(Cl)cc1)C(CN1CCOCC1)c1ccc(Cl)cc1 (centres undefined) | not met |
| COc1cc2c3cc1Oc1c(OC)c(OC)cc4c1C(Cc1ccc(O)c(c1)Oc1ccc(cc1)CC3N(C)CC2)N(C)CC4 (centres undefined) | met |
| OC(CNC1CCCC1)Cn1c2ccccc2c2ccccc21 (centres undefined) | met |
| Cc1ccc(C(=O)c2oc3ccc4c(C)cc(=O)oc4c3c2C)cc1 | not met |
| Cc1cc(C=C2SC(=Nc3ccccc3)N(C3CCCC3)C2=O)c(C)n1-c1ccc(Cl)cc1 | not met |
| COc1cccc(NC(=O)Cn2c(C)c(C#N)c3ccccc32)c1 | met |
| COc1cccc(Nc2nc(NCCO)c3ccccc3n2)c1 | not met |
| O=C(CCl)NCCOc1ccc(Cl)cc1Cl | not met |

====

# Test system: Plasmodium falciparum NF54 gametocytes
# experiment.summary: viability index relative to DMSO control (fraction); higher = less gametocyte killing
# condition.label: gametocyte stage: Stage I viability index; 12.5 µM; incubation time: 72 h
assay.endpoint: viability index

| molecule | assay.system | recorded.measurement |
| --- | --- | --- |
| CCOc1ccccc1CN1CCc2nc3cc(C(C)(C)C)nn3c(O)c2C1 | Plasmodium falciparum NF54 gametocytes | 0.89 |
| COc1ccc(C2=C(c3ccc(OC)cc3)C3(c4ccccc4)C(=O)C2(c2ccccc2)C2C(=O)N(c4ccc(C)cc4)C(=O)C23)cc1 (stereo not drawn) | Plasmodium falciparum NF54 gametocytes | 0.682 |
| COc1ccc(C(=O)C(CCC(CNC(C)(C)C)C(=O)c2ccc(OC)cc2)CNC(C)(C)C)cc1 (stereo not drawn) | Plasmodium falciparum NF54 gametocytes | 0.811 |
| COc1ccc(N2CCN(C(CNC(=O)CC(C)(C)C)c3ccc4c(c3)OCO4)CC2)cc1 (stereo not drawn) | Plasmodium falciparum NF54 gametocytes | 1.04 |
| COc1ccc(-c2nc(N3CCN(C(=O)C4CCCCC4)CC3)c3c4c(sc3n2)CCCC4)cc1 | Plasmodium falciparum NF54 gametocytes | 1.05 |
| FC(F)(F)c1ccc(Nc2nnnc3ccccc23)cc1 | Plasmodium falciparum NF54 gametocytes | 0.604 |
| CNCCCNc1ccnc2cc(Cl)ccc12 | Plasmodium falciparum NF54 gametocytes | 0.0398 |
| C=CCc1c(C)nc2ccccc2c1O | Plasmodium falciparum NF54 gametocytes | 0.92 |
| CCOc1ccc2nc(C)cc(Nc3ccc(Br)cc3)c2c1 | Plasmodium falciparum NF54 gametocytes | 0.152 |
| COc1cc(C(=O)ON=C(N)Cc2cccc3ccccc23)cc(OC)c1OC | Plasmodium falciparum NF54 gametocytes | 0.0175 |
| COc1ccc(C(=O)C2CC2c2ccc(Cl)cc2)cc1 (stereo not drawn) | Plasmodium falciparum NF54 gametocytes | 1.01 |
| COc1ccc(-c2cc3c(nn2)-c2ccccc2C3=O)cc1 | Plasmodium falciparum NF54 gametocytes | 0.713 |
| COc1ccc(NC(=O)C2c3ccccc3C(=O)N(CC(C)C)C2c2cccs2)cc1Cl (stereo not drawn) | Plasmodium falciparum NF54 gametocytes | 0.0453 |
| COc1cc2c(cc1OC)C1=NNC(=O)C1=NC(C)(C)C2 | Plasmodium falciparum NF54 gametocytes | 0.00884 |
| O=C(NC1CCCC1)c1ccc(N2CCC(NCc3cccc(C(F)(F)F)c3)CC2)cc1 | Plasmodium falciparum NF54 gametocytes | 0.243 |
| COc1ccccc1C(=O)ON=C(N)Cc1cccc2ccccc12 | Plasmodium falciparum NF54 gametocytes | 0.0446 |
| COc1ccc2c(c1)C1(Nc3ccccc3-c3nc4ccccc4n31)C(=O)N2 (stereo not drawn) | Plasmodium falciparum NF54 gametocytes | 0.0265 |
| Cc1sc(NC(=O)c2ccco2)c(C(c2cccnc2)N2CCC(Cc3ccccc3)CC2)c1C (stereo not drawn) | Plasmodium falciparum NF54 gametocytes | 0.00962 |
